biological target: CHK-1 kinase (Homo sapiens (Human), UniProt O14757); experiment: CHK-1 % inhibition kinase assay (TR-FRET); format: biochemical; conditions: CHK1 enzyme, compound 300 nM, ATP 15 μM
Sequence (O14757 whole entry): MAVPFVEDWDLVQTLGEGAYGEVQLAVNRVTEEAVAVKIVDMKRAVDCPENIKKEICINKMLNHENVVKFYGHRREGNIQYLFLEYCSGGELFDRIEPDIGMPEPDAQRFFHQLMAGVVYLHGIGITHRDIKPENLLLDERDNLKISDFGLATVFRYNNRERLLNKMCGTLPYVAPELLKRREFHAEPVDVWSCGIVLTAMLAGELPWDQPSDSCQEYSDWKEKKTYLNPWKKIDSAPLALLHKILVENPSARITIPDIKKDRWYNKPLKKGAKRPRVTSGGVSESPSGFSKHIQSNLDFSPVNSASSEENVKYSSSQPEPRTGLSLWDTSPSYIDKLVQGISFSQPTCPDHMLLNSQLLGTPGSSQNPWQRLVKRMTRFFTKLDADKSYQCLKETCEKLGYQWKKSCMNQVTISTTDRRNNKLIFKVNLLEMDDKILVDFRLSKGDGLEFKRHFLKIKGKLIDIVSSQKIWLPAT
Please enter criterion met where inhibition at 0.3 µM is greater than or equal to 60%, and criterion not met where it is lower.

[Q] Is inhibition at 0.3 µM for N#Cc1cnc(Nc2cc(-c3ccccc3OCC3CCNCC3)on2)cn1 at or above 60%?
[A] criterion met

[Q] inhibition at 0.3 µM >= 60% for CN1CC(Oc2ccccc2-c2cc(Nc3cnc(C#N)cn3)no2)C1 ?
[A] criterion met

[Q] // inclusive: inhibition at 0.3 µM at least 60%? input: CC(C)N1CC(Oc2ccccc2-c2cc(Nc3cnc(C#N)cn3)no2)C1
[A] criterion not met

[Q] Quick check: does N#Cc1cnc(Nc2cc(-c3ccccc3OC3CC(N)C3)on2)cn1 (stereo not drawn) have inhibition at 0.3 µM greater than or equal to 60%?
[A] criterion met

[Q] Threshold query (inhibition at 0.3 µM >= 60%) on N#Cc1cnc(Nc2cc(-c3ccccc3OCCCN)on2)cn1
[A] criterion met

[Q] inhibition at 0.3 µM >= 60% for N#Cc1cnc(Nc2cc(-c3cc4ccccc4cc3OCCN)[nH]n2)cn1 ?
[A] criterion met

[Q] Does the compound COc1cc(C2=CCNCC2)ccc1-c1cc(Nc2cnc(C#N)cn2)on1 have recorded inhibition at 0.3 µM that is 60% or more?
[A] criterion not met

[Q] // inclusive: inhibition at 0.3 µM at least 60%? input: N#Cc1cnc(Nc2cc(-c3ccccc3OCC3CNC3)on2)cn1
[A] criterion met

###

molecular target: CHK-1 kinase (Homo sapiens (Human)); experiment: CHK-1 % inhibition kinase assay (TR-FRET); assay type: biochemical; details: TR-FRET, ATP 15 μM; read-out: CHK1 IC50
pIC50: −log10 of the molar value.
Entry flag: true if pIC50 reaches 8; false if it does not.

[Q] Threshold query (pIC50 >= 8) on N#Cc1cnc(Nc2cc(-c3ccccc3OC3CNC3)on2)cn1 [Compound 1.4]
[A] false

[Q] Does the compound N#Cc1cnc(Nc2cc(-c3ccccc3OCC3CNCCO3)on2)cn1 (stereo not drawn) [Compound 1.1] have recorded pIC50 that is 8 or more?
[A] false

[Q] Could you tell me if the measured pIC50 of CN1CCOC(COc2ccccc2-c2cc(Nc3cnc(C#N)cn3)no2)C1 (stereo not drawn) [Compound 1.8] reaches 8 or more?
[A] false

[Q] Check the entry N#Cc1cnc(Nc2cc(-c3cc4ccccc4cc3OCC3CCNC3)[nH]n2)cn1 (stereo not drawn) [Compound 2.4] : does pIC50 equal or exceed 8?
[A] true

[Q] Determine whether this compound has pIC50 no lower than 8: N#Cc1cnc(Nc2cc(-c3cc4ccccc4cc3OCC3CCNCC3)[nH]n2)cn1 [Compound 2.1]
[A] true

[Q] Reported pIC50 at or above 8? N#Cc1cnc(Nc2cc(-c3cc4ccccc4cc3OCCCN)[nH]n2)cn1 [Compound 2.7]
[A] true

[Q] Could you tell me if the measured pIC50 of COc1cc(C2=CCNCC2)ccc1-c1cc(Nc2cnc(C#N)cn2)on1 [Compound 1.9] reaches 8 or more?
[A] false

[Q] Check if pIC50 >= 8 (inclusive). Item: N#Cc1cnc(Nc2cc(-c3cc4ccccc4cc3OCC3CCCNC3)[nH]n2)cn1 (stereo not drawn) [Compound 2.5]
[A] true

***
[Q] Is pIC50 for N#Cc1cnc(Nc2cc(-c3cc4ccccc4cc3OCC3CNC3)[nH]n2)cn1 [Compound 2.2] at or above 8?
[A] true

###

assay: Microsomal stability assay, human liver microsome; assay type: in vitro ADME; conditions: liver microsomes, pH 7.4, 0.2 mg/mL, 1 μM compound, 37° C., read-out: Clint HLM
Note to self: microsomal CLint at 1 μM under 50 µL/min/mg means class 1, ties and anything higher get class 0.

Example cases with answers are listed next.
[Q] Threshold test, microsomal CLint at 1 μM < 50 µL/min/mg: N#Cc1cnc(Nc2cc(-c3ccccc3OC3CNC3)on2)cn1
[A] class 0

[Q] Confirm or reject: microsomal CLint at 1 μM of N#Cc1cnc(Nc2cc(-c3ccccc3OC3CC(N)C3)on2)cn1 (stereo not drawn) lies strictly below 50 µL/min/mg
[A] class 1

[Q] In the record for N#Cc1cnc(Nc2cc(-c3ccccc3OCCCCN)on2)cn1 , is microsomal CLint at 1 μM less than 50 µL/min/mg?
[A] class 0

[Q] Regarding COc1cc(C2=CCNCC2)ccc1-c1cc(Nc2cnc(C#N)cn2)on1 , kindly confirm whether its microsomal CLint at 1 μM is beneath 50 µL/min/mg.
[A] class 0

[Q] For this compound, is microsomal CLint at 1 μM lower than 50 µL/min/mg? N#Cc1cnc(Nc2cc(-c3ccccc3OCC3CNCCO3)on2)cn1 (stereo not drawn)
[A] class 1

[Q] For COc1cc(C2=CCNCC2)ccc1-c1cc(Nc2cnc(C#N)cn2)no1 , is the recorded microsomal CLint at 1 μM below the cut-off of 50 µL/min/mg?
[A] class 0

[Q] Does the reported microsomal CLint at 1 μM of the following compound sit strictly below 50 µL/min/mg? N#Cc1cnc(Nc2cc(-c3ccccc3OCC3CCNCC3)on2)cn1
[A] class 1

[Q] I wonder whether N#Cc1cnc(Nc2cc(-c3ccccc3OC3CCNC3)on2)cn1 (stereo not drawn) has microsomal CLint at 1 μM below 50 µL/min/mg. Can you tell?
[A] class 1

Next up:
[Q] Threshold test, microsomal CLint at 1 μM < 50 µL/min/mg: N#Cc1cnc(Nc2cc(-c3ccccc3OCCCN)on2)cn1
[A] class 0

###

// microsomal CLint at 1 μM lookup, one value per entry
assay: Microsomal stability assay, rat liver microsome; assay type: in vitro ADME; conditions: liver microsomes, pH 7.4, 0.2 mg/mL, 1 μM compound, 37° C., read-out: Clint RLM
Reply with just the number (in µL/min/mg).

[Q] What does the record list as microsomal CLint at 1 μM for N#Cc1cnc(Nc2cc(-c3cc4ccccc4cc3OCC3CNCCO3)[nH]n2)cn1 (centres unmarked) ?
[A] 39

[Q] Quick check: microsomal CLint at 1 μM of N#Cc1cnc(Nc2cc(-c3ccccc3OCC3CNC3)on2)cn1 ?
[A] 43

[Q] Field request: microsomal CLint at 1 μM | item: CC(C)CC(C)N1CC(Oc2ccccc2-c2cc(Nc3cnc(C#N)cn3)no2)C1 (centres unmarked)
[A] 266

[Q] Recorded microsomal CLint at 1 μM for N#Cc1cnc(Nc2cc(-c3cc4ccccc4cc3OCCN)[nH]n2)cn1 , please?
[A] 58

Here is the next item to consider.
[Q] Field request: microsomal CLint at 1 μM | item: CN1CCCC(COc2ccccc2-c2cc(Nc3cnc(C#N)cn3)no2)C1 (centres unmarked)
[A] 138

###

assay: Caco-2 cell permeability assay; type: in vitro ADME; settings: human, Caco-2, pH 7.4, Caco-2, total recovery with cell lysate, A to B; read-out: Recovery % with Cell Lysate A to B
Measured recovery at 120 min by item
# value in %; strip the unit string

[Q] # query: recovery at 120 min of entry N#Cc1cnc(Nc2cc(-c3ccccc3OCC3CCNCC3)on2)cn1 [Compound 1.2]
[A] 93.9

[Q] Name the reported recovery at 120 min value associated with the compound N#Cc1cnc(Nc2cc(-c3ccccc3OCC3CCCNC3)on2)cn1 (stereo not drawn) [Compound 1.3]
[A] 89

[Q] // query recovery at 120 min value for entry N#Cc1cnc(Nc2cc(-c3ccccc3OCC3CNCCO3)on2)cn1 (stereo not drawn) [Compound 1.1]
[A] 94.1

###

experiment: Caco-2 cell permeability assay; type: in vitro ADME; conditions: human, Caco-2, pH 7.4, Caco-2, total recovery with cell lysate, B to A; read-out: Recovery % with Cell Lysate B to A
Recorded recovery at 120 min values for a group of compounds are listed next.
Write down the value, and be sure its unit follows.

Below: 2 compounds and their reported recovery at 120 min.
[Q] Record request: recovery at 120 min value, item N#Cc1cnc(Nc2cc(-c3ccccc3OCC3CCNCC3)on2)cn1 [Compound 1.2]
[A] 108%

[Q] Need recovery at 120 min, item N#Cc1cnc(Nc2cc(-c3ccccc3OCC3CNCCO3)on2)cn1 (stereo not drawn) [Compound 1.1]
[A] 107%

# input for lookup
[Q] Could you share which recovery at 120 min value was measured for N#Cc1cnc(Nc2cc(-c3ccccc3OCC3CCCNC3)on2)cn1 (stereo not drawn) [Compound 1.3] ?
[A] 107%

###

biological target: CHK-1 kinase (Homo sapiens (Human)); experiment: CHK-1 % inhibition kinase assay (TR-FRET); format: biochemical; details: CHK1 enzyme, compound 300 nM, ATP 15 μM
Below is a list of entries, each paired with its recorded inhibition at 0.3 µM value.
Just the number please, in %, no unit attached.

Consider the reported inhibition at 0.3 µM for these compounds:
[Q] Reported inhibition at 0.3 µM for N#Cc1cnc(Nc2cc(-c3ccccc3OCC3CNCCO3)on2)cn1 (stereo not drawn) : what is it?
[A] 88

[Q] What value of measured inhibition at 0.3 µM is listed for N#Cc1cnc(Nc2cc(-c3cc4ccccc4cc3OCCCN)[nH]n2)cn1 ?
[A] 100

[Q] Find the recorded inhibition at 0.3 µM belonging to CCC(C)N1CC(Oc2ccccc2-c2cc(Nc3cnc(C#N)cn3)no2)C1 (stereo not drawn) and report it.
[A] 28

New cases:
[Q] Using the record for N#Cc1cnc(Nc2cc(-c3ccccc3OCCCCN)on2)cn1 , report its inhibition at 0.3 µM.
[A] 91

[Q] Any idea what its inhibition at 0.3 µM is? The compound is N#Cc1cnc(Nc2cc(-c3ccccc3O[C@H]3CC[C@@H](N)CC3)on2)cn1
[A] 79

[Q] # query: inhibition at 0.3 µM of entry CC(C)CC(C)N1CC(Oc2ccccc2-c2cc(Nc3cnc(C#N)cn3)no2)C1 (stereo not drawn)
[A] 30

[Q] What measured inhibition at 0.3 µM goes with N#Cc1cnc(Nc2cc(-c3ccccc3OCC3CCCNC3)on2)cn1 (stereo not drawn) ?
[A] 97

[Q] Give its inhibition at 0.3 µM value. Item: N#Cc1cnc(Nc2cc(-c3ccccc3OC3CNC3)on2)cn1
[A] 54

[Q] Fill in the blank: the reported inhibition at 0.3 µM of N#Cc1cnc(Nc2cc(-c3cc4ccccc4cc3OCC3CCNC3)[nH]n2)cn1 (stereo not drawn) is ____.
[A] 97

[Q] Name the reported inhibition at 0.3 µM value associated with the compound N#Cc1cnc(Nc2cc(-c3cc4ccccc4cc3OCC3CNCCO3)[nH]n2)cn1 (stereo not drawn)
[A] 81

[Q] Look at this compound and give its reported inhibition at 0.3 µM. CN1CCCC(COc2ccccc2-c2cc(Nc3cnc(C#N)cn3)no2)C1 (stereo not drawn)
[A] 75

[Q] Which measured inhibition at 0.3 µM value corresponds to COc1cc(C2=CCNCC2)ccc1-c1cc(Nc2cnc(C#N)cn2)no1 ?
[A] 50.5

[Q] Query: inhibition at 0.3 µM; subject: COc1cc(C2=CCN(C)CC2)ccc1-c1cc(Nc2cnc(C#N)cn2)on1
[A] 11

[Q] Using the record for N#Cc1cnc(Nc2cc(-c3cc4ccccc4cc3OCC3CCCNC3)[nH]n2)cn1 (stereo not drawn) , report its inhibition at 0.3 µM.
[A] 96

Entry source: patent US20250346587A1
